Where these numbers come from: paper PMC3532596

- Tested on: P. falciparum W2 strain
- Experimental details: cell-based P. falciparum proliferation assay, W2 strain
- Parameters: species or system Plasmodium falciparum
- Cond: Plasmodium falciparum, W2, read-out: P. falciparum W2 strain EC50
Quantity name: EC50 (nM)
Please state the figure in nM; there is no need to write the unit.

Solved entries (count: 4):
[
  {
    "Molecule": "O=C(Nc1cccc(Cl)c1)c1cc(N2CCC(N3CCCCC3)CC2)cc(C(F)(F)F)c1",
    "Measure unit": "nM",
    "EC50": 296
  },
  {
    "Molecule": "O=C(Nc1cccc(C(F)(F)F)c1)c1cc(N2CCC(N3CCCCC3)CC2)cc(C(F)(F)F)c1",
    "Measure unit": "nM",
    "EC50": 299
  },
  {
    "Molecule": "O=C(Nc1cccc(C(F)(F)F)c1)c1cc(N2CCC(N3CCCCC3=O)CC2)cc(C(F)(F)F)c1",
    "Measure unit": "nM",
    "EC50": 1410
  },
  {
    "Molecule": "CC1CCCN(C2CCN(c3cc(C(=O)Nc4cccc(C(F)(F)F)c4)cc(C(F)(F)F)c3)CC2)C1 (stereo not shown)",
    "Measure unit": "nM",
    "EC50": 211
  }
]

Task item: Given the entry O=C(Nc1cccc(C(F)(F)F)c1)c1cc(N2CCc3ccccc3C2)cc(C(F)(F)F)c1 , report its measured EC50.
Reply: 635

Task item: Given O=C(Nc1cccc(Cl)c1)c1cc(N2CCC(N3CCCC3)CC2)cc(C(F)(F)F)c1 , state its recorded EC50.
Reply: 888

Task item: // lookup EC50 for CC1CCN(C2CCN(c3cc(C(=O)Nc4cccc(Cl)c4)cc(C(F)(F)F)c3)CC2)CC1
Reply: 323

---

- Experimental details: snapshot PK in mice, single oral dose
- Format: in vivo
- Cond: mouse, in vivo, po; mice balb/c, 20 mg/kg orally, PEG300/D5W 3:1 solution, free base
Listed here are compounds together with their documented Cmax at 5 h.
// units = nM; emit number, no label

Example results:
[
  {
    "Smiles repr": "O=C(Nc1cccc(C(F)(F)F)c1)c1cc(N2CCc3ccccc3C2)cc(C(F)(F)F)c1",
    "Measure unit": "nM",
    "Reported result": 672
  },
  {
    "Smiles repr": "O=C(Nc1cccc(Cl)c1)c1cc(N2CCC(N3CCCC3)CC2)cc(C(F)(F)F)c1",
    "Measure unit": "nM",
    "Reported result": 1360
  },
  {
    "Smiles repr": "CC1CCN(C2CCN(c3cc(C(=O)Nc4cccc(Cl)c4)cc(C(F)(F)F)c3)CC2)CC1",
    "Measure unit": "nM",
    "Reported result": 2280
  },
  {
    "Smiles repr": "O=C(Nc1cc(Cl)cc(Cl)c1)c1cc(N2CCC(N3CCCC3)CC2)cc(C(F)(F)F)c1",
    "Measure unit": "nM",
    "Reported result": 1640
  },
  {
    "Smiles repr": "O=C(Nc1cc(N2CCC(N3CCCC3)CC2)cc(C(F)(F)F)c1)c1cccc(C(F)(F)F)c1",
    "Measure unit": "nM",
    "Reported result": 1170
  }
]

Task item: Quick check: Cmax at 5 h of O=C(Nc1cccc(Cl)c1)c1cc(N2CCC(N3CCCCC3)CC2)cc(C(F)(F)F)c1 ?
Reply: 1370

---

- Test system: P. falciparum strain FCR3
- Experimental details: P. falciparum proliferation assay, FCR3 strain
- Type: cell-based
- Cond: Plasmodium falciparum
- From the text: Currently there is a need for novel chemical scaffolds with different mechanisms of action, since most of the current approved antimalarial drugs belong to the aminoquinoline family. In order to find new chemical scaffolds, we initiated a compound screen using our in-house kinase inhibitor collection and subjected them to a cell-based of Plasmodium falciparum proliferation assay[5,6] […]
Quantity name: pEC50
Worth noting: pEC50 values are minus log10 of concentrations stated in mol/L.

Task item: Please state recorded pEC50 (tested on P. falciparum strain FCR3) of CC1CCN(C2CCN(c3cc(C(=O)Nc4cccc(Cl)c4)cc(C(F)(F)F)c3)CC2)CC1
Reply: 6.66

---

- System: P. falciparum strain TM91C235
- Experimental details: P. falciparum proliferation assay, TM91C235 strain
- Format: cell-based
- Cond: Plasmodium falciparum
Quantity name: pEC50
// pEC50: -log10(molar conc.)

Task item: What does the record list as pEC50 for CC1CCN(C2CCN(c3cc(C(=O)Nc4cccc(Cl)c4)cc(C(F)(F)F)c3)CC2)CC1 ?
Reply: 6.92

---

- Test system: P. falciparum 3D7 strain
- Experimental details: cell-based P. falciparum proliferation assay, 3D7 strain
- Cond: Plasmodium falciparum; chloroquine sensitive 3D7 strain; means of two experiments
# reported pEC50; entries follow
On this scale, pEC50 is minus log10 of a concentration expressed in M (mol/L).

[
  {
    "Smiles repr": "O=C(Nc1cc(N2CCC(N3CCCC3)CC2)cc(C(F)(F)F)c1)c1cccc(C(F)(F)F)c1",
    "Quantity name": "pEC50",
    "Reported result": 6.70
  },
  {
    "Smiles repr": "N#Cc1cccc(NC(=O)c2cc(N3CCC(N4CCCC4)CC3)cc(C(F)(F)F)c2)c1",
    "Quantity name": "pEC50",
    "Reported result": 6.84
  },
  {
    "Smiles repr": "O=C(NCc1cccc(C(F)(F)F)c1)c1cc(N2CCC(N3CCCC3)CC2)cc(C(F)(F)F)c1",
    "Quantity name": "pEC50",
    "Reported result": 6.13
  }
]

Continue with the molecule presented below.
Task item: For the molecule O=C(Nc1cccc(C(F)(F)F)c1)c1cc(N2CCc3ccccc3C2)cc(C(F)(F)F)c1 , what pEC50 is on record?
Reply: 6.76

---

- System: P. falciparum 3D7 strain
- Experimental details: cell-based P. falciparum proliferation assay, 3D7 strain
- Cond: Plasmodium falciparum; chloroquine sensitive 3D7 strain; means of two experiments
EC50 by entry:
Report as a plain number; the unit µM is understood.

[
  {
    "Smiles repr": "O=C(Nc1cc(Cl)cc(Cl)c1)c1cc(N2CCC(N3CCCC3)CC2)cc(C(F)(F)F)c1",
    "Quantity name": "EC50",
    "Measure unit": "µM",
    "Reported result": 0.048
  },
  {
    "Smiles repr": "CN(C(=O)c1cc(N2CCC(N3CCCC3)CC2)cc(C(F)(F)F)c1)c1cccc(Cl)c1",
    "Quantity name": "EC50",
    "Measure unit": "µM",
    "Reported result": 4.68
  },
  {
    "Smiles repr": "O=C(Nc1cccc(Cl)c1)c1cccc(N2CCC(N3CCCC3)CC2)c1",
    "Quantity name": "EC50",
    "Measure unit": "µM",
    "Reported result": 5.88
  }
]

Would you kindly look at the next entry?
Task item: Look up EC50 with P. falciparum 3D7 strain for this compound: O=C(Nc1cccc(C(F)(F)F)c1)c1cc(N2CCC(N3CCCC3)CC2)cc(C(F)(F)F)c1
Reply: 0.174

---

- Experimental details: snapshot PK in mice, single oral dose
- Assay type: in vivo
- Cond: mouse, in vivo, po; mice balb/c, 20 mg/kg orally, PEG300/D5W 3:1 solution, free base
Listed here are compounds together with their documented Tmax at 5 h.
// units = h; emit number, no label

Examples from the recorded data:
[
  {
    "Smiles repr": "O=C(Nc1cccc(Cl)c1)c1cc(N2CCC(N3CCCC3)CC2)cc(C(F)(F)F)c1",
    "Reported result": 1
  },
  {
    "Smiles repr": "O=C(Nc1cc(Cl)cc(Cl)c1)c1cc(N2CCC(N3CCCC3)CC2)cc(C(F)(F)F)c1",
    "Reported result": 5
  },
  {
    "Smiles repr": "O=C(Nc1cccc(C(F)(F)F)c1)c1cc(N2CCc3ccccc3C2)cc(C(F)(F)F)c1",
    "Reported result": 0.5
  },
  {
    "Smiles repr": "O=C(Nc1cccc(Cl)c1)c1cc(N2CCC(N3CCCCC3)CC2)cc(C(F)(F)F)c1",
    "Reported result": 1
  }
]

Task item: What measured Tmax at 5 h goes with O=C(Nc1cc(N2CCC(N3CCCC3)CC2)cc(C(F)(F)F)c1)c1cccc(C(F)(F)F)c1 ?
Reply: 3

Task item: // lookup Tmax at 5 h for CC1CCN(C2CCN(c3cc(C(=O)Nc4cccc(Cl)c4)cc(C(F)(F)F)c3)CC2)CC1
Reply: 5

---

Measured AUC(0–5h)/dose accompanies every entry in the list below.
- Experimental details: snapshot PK in mice, single oral dose
- Assay type: in vivo
- Cond: mice balb/c, 20 mg/kg orally, PEG300/D5W 3:1 solution, free base

These solved cases illustrate the format of a correct answer.
[
  {
    "Smiles repr": "CC1CCN(C2CCN(c3cc(C(=O)Nc4cccc(Cl)c4)cc(C(F)(F)F)c3)CC2)CC1",
    "AUC(0–5h)/dose": "11.42 (min ug/mL)/(mg/kg)"
  },
  {
    "Smiles repr": "O=C(Nc1cccc(C(F)(F)F)c1)c1cc(N2CCc3ccccc3C2)cc(C(F)(F)F)c1",
    "AUC(0–5h)/dose": "2.33 (min ug/mL)/(mg/kg)"
  },
  {
    "Smiles repr": "O=C(Nc1cccc(Cl)c1)c1cc(N2CCC(N3CCCCC3)CC2)cc(C(F)(F)F)c1",
    "AUC(0–5h)/dose": "6.10 (min ug/mL)/(mg/kg)"
  },
  {
    "Smiles repr": "O=C(Nc1cccc(Cl)c1)c1cc(N2CCC(N3CCCC3)CC2)cc(C(F)(F)F)c1",
    "AUC(0–5h)/dose": "5.31 (min ug/mL)/(mg/kg)"
  },
  {
    "Smiles repr": "O=C(Nc1cc(Cl)cc(Cl)c1)c1cc(N2CCC(N3CCCC3)CC2)cc(C(F)(F)F)c1",
    "AUC(0–5h)/dose": "7.01 (min ug/mL)/(mg/kg)"
  }
]

Alright, here's another compound for you.
Task item: So what's the measured AUC(0–5h)/dose for this one? O=C(Nc1cc(N2CCC(N3CCCC3)CC2)cc(C(F)(F)F)c1)c1cccc(C(F)(F)F)c1
Reply: 6.94 (min ug/mL)/(mg/kg)
